Test system: Vero
Assay: Cytotoxicity against african green monkey Vero cells assessed as loss of cell monolayers after 96 hrs
Assay type: cell-based
Details: Chlorocebus sabaeus
observed.property: log10(IC50) (log10 of the value in mg/L)

compound: C=C1CC[C@H](O)[C@]2(C)C[C@H](OC(C)=O)C3=C(C(C)C)[C@H](OC(C)=O)C[C@@]3(C)C[C@@]12O [AMIJIOL-7,10-DIACETATE]
study.target: Vero
observed.property: log10(IC50)
observed.measurement: 1.33
--
compound: C=C1C[C@@H](O)[C@@H]([C@H](C)CCC=C(C)C)[C@@H](O)[C@@H]2C(C)=CC[C@@H]12
study.target: Vero
observed.property: log10(IC50)
observed.measurement: 1.86
--
compound: C/C1=C\[C@@H](O)C/C(C)=C/C[C@]2(C)CCC(C(C)C)=C2CC1 [DOLABELLATRIENOL]
study.target: Vero
observed.property: log10(IC50)
observed.measurement: 2.08
--
compound: CC(C)=CCCC(C)C1CC/C(C)=C/CCC2COC(O)C21 (stereo unspecified) [ISODICTYOHEMIACETAL]
study.target: Vero
observed.property: log10(IC50)
observed.measurement: 1.88
--
compound: C=C1CC[C@H](O)[C@]2(C)CCC3=C(C(C)C)CC[C@@]3(C)C[C@@]12O [AMIJIOL]
study.target: Vero
observed.property: log10(IC50)
observed.measurement: 1.88
--
compound: O=c1[nH]cc(F)c(=O)[nH]1 [FLUOROURACIL]
study.target: Vero
observed.property: log10(IC50)
observed.measurement: 0.81

----------
Assay: Toxicity in rat erythrocytes assessed as hemolysis at 2 mM
Format: cell-based, Erythrocyte
Conditions: read-out: Activity
observed.property: hemolysis at 2000 µM (%)

molecule: C=C1CC[C@@H]([C@H](C)CCC=C(C)C)[C@@H](O)[C@@H]2C(C)=CC[C@@H]12
display.unit: %
observed.measurement: 2.45
--
molecule: C=C1CC[C@H](OC(C)=O)[C@]2(C)CCC3=C(C(C)C)CC[C@@]3(C)C[C@@]12O [AMIJIOL ACETATE]
display.unit: %
observed.measurement: 0.7
--
molecule: C=C1CC[C@H](O)[C@]2(C)CCC3=C(C(C)C)CC[C@@]3(C)C[C@@]12O
display.unit: %
observed.measurement: 0.5
--
molecule: CC(C)=CCCC(C)C1CC/C(C)=C/CCC2COC(O)C21 (centres undefined)
display.unit: %
observed.measurement: 0.75

----------
Assay: Cytotoxicity against human WI38 cells assessed as cell viability at 10 ug/ml after 96 hrs relative to control
Type: cell-based, WI-38
Details: read-out: Activity

compound: C=C1CC[C@H](OC(C)=O)[C@]2(C)CCC3=C(C(C)C)CC[C@@]3(C)C[C@@]12O [AMIJIOL ACETATE]
viability at 96 h, 10 ug/ml: 65%

----------
Test system: HepG2
Assay: Cytotoxicity against human HepG2 cells assessed as loss of cell monolayers after 96 hrs
Type: functional, cell-based
Details: HepG2, 96 h
param class (str): category from IC50; see ranges lower band = under 40 µg/mL, central band = from 40 µg/mL up to 70 µg/mL, upper band = 70 µg/mL and over

compound: C=C1CC[C@H](O)[C@]2(C)C[C@H](OC(C)=O)C3=C(C(C)C)[C@H](OC(C)=O)C[C@@]3(C)C[C@@]12O [AMIJIOL-7,10-DIACETATE]
label: central band
--
compound: C=C1C[C@@H](O)[C@@H]([C@H](C)CCC=C(C)C)[C@@H](O)[C@@H]2C(C)=CC[C@@H]12
label: upper band
--
compound: CC(C)=CCC[C@@H](C)[C@H]1[C@@H](O)[C@@H]2C(C)=CC[C@H]2[C@@](C)(O)C[C@H]1O
label: upper band
--
compound: C/C1=C\[C@@H](O)C/C(C)=C/C[C@]2(C)CCC(C(C)C)=C2CC1 [DOLABELLATRIENOL]
label: upper band
--
compound: C=C1CC[C@H](OC(C)=O)[C@]2(C)CCC3=C(C(C)C)CC[C@@]3(C)C[C@@]12O [AMIJIOL ACETATE]
label: lower band
--
compound: O=c1[nH]cc(F)c(=O)[nH]1
label: lower band

----------
Test: Cytotoxicity against human WI38 cells assessed as cell viability at 50 ug/ml after 96 hrs relative to control
Type: cell-based, WI-38
Conditions: read-out: Activity

molecule: C=C1CC[C@H](OC(C)=O)[C@]2(C)CCC3=C(C(C)C)CC[C@@]3(C)C[C@@]12O [AMIJIOL ACETATE]
viability at 96 h, 50 ug/ml: 12%

----------
Assay: Cytotoxicity against mouse EAC assessed as dead cells at 1 mg/ml after 2 hrs using trypan blue staining by hemocytometer analysis
Assay type: functional, Ehrlich
// values below are reported Activity
observed.property: Activity (%)

compound: CC(C)=CCCC(C)C1CC/C(C)=C/CCC2COC(O)C21 (centres undefined)
observed.property: Activity
display.unit: %
observed.measurement: 59.1
//
compound: C/C1=C\[C@@H](O)C/C(C)=C/C[C@]2(C)CCC(C(C)C)=C2CC1 [DOLABELLATRIENOL]
observed.property: Activity
display.unit: %
observed.measurement: 15.1
//
compound: CC(C)=CCC[C@@H](C)[C@H]1[C@@H](O)[C@@H]2C(C)=CC[C@H]2[C@@](C)(O)C[C@H]1O
observed.property: Activity
display.unit: %
observed.measurement: 18
//
compound: C=C1CC[C@@H]([C@H](C)CCC=C(C)C)[C@@H](O)[C@@H]2C(C)=CC[C@@H]12
observed.property: Activity
display.unit: %
observed.measurement: 42.9
//
compound: CC(C)=CCC[C@@H](C)[C@@H]1CC=C(C)[C@@H]2CC=C(C)[C@H]2[C@@H]1O
observed.property: Activity
display.unit: %
observed.measurement: 48.4
//
compound: C=C1CC[C@H](OC(C)=O)[C@]2(C)CCC3=C(C(C)C)CC[C@@]3(C)C[C@@]12O [AMIJIOL ACETATE]
observed.property: Activity
display.unit: %
observed.measurement: 85.9
//
compound: C=C1CC[C@H](O)[C@]2(C)C[C@H](OC(C)=O)C3=C(C(C)C)[C@H](OC(C)=O)C[C@@]3(C)C[C@@]12O [AMIJIOL-7,10-DIACETATE]
observed.property: Activity
display.unit: %
observed.measurement: 71.2
//
compound: C=C1C[C@@H](O)[C@@H]([C@H](C)CCC=C(C)C)[C@@H](O)[C@@H]2C(C)=CC[C@@H]12
observed.property: Activity
display.unit: %
observed.measurement: 60.9
//
compound: C=C1CC[C@H](O)[C@]2(C)CCC3=C(C(C)C)CC[C@@]3(C)C[C@@]12O
observed.property: Activity
display.unit: %
observed.measurement: 56

----------
System: Brain
Assay: Antioxidant activity in rat brain/kidney homogenates assessed as inhibition of lipid peroxidation at 2 mM by […] method
Type: functional, tissue-based

smiles.representation: C=C1C[C@@H](O)[C@@H]([C@H](C)CCC=C(C)C)[C@@H](O)[C@@H]2C(C)=CC[C@@H]12
display.unit: %
inhibition: 61.6
--
smiles.representation: C=C1CC[C@H](O)[C@]2(C)CCC3=C(C(C)C)CC[C@@]3(C)C[C@@]12O
display.unit: %
inhibition: 59.2
--
smiles.representation: CC(C)=CCC[C@@H](C)[C@@H]1CC=C(C)[C@@H]2CC=C(C)[C@H]2[C@@H]1O
display.unit: %
inhibition: 59.9

----------
// values below are reported IC50
Test system: HepG2
Test: Cytotoxicity against human HepG2 cells assessed as loss of cell monolayers after 96 hrs
Format: functional, cell-based
Conditions: HepG2, 96 h
observed.property: IC50

molecule: C=C1CC[C@@H]([C@H](C)CCC=C(C)C)[C@@H](O)[C@@H]2C(C)=CC[C@@H]12
observed.measurement: 40.2 µg/mL
--
molecule: C=C1CC[C@H](O)[C@]2(C)CCC3=C(C(C)C)CC[C@@]3(C)C[C@@]12O
observed.measurement: 70.2 µg/mL
--
molecule: CC(C)=CCC[C@@H](C)[C@@H]1CC=C(C)[C@@H]2CC=C(C)[C@H]2[C@@H]1O
observed.measurement: 39.2 µg/mL
--
molecule: CC(C)=CCCC(C)C1CC/C(C)=C/CCC2COC(O)C21 (centres undefined)
observed.measurement: 70.2 µg/mL
